Details: in n-butanol, 298.15 K
assay.endpoint: solubility (mole fraction)

smi=CC(C)(c1ccc(O)cc1)c1ccc(O)cc1 assay_endpoint="solubility (mole fraction)" measured_number=0.135

###

Settings: in ethanol, 313.15 K
assay.endpoint: solubility (mole fraction)

smi=CC(C)(c1ccc(O)cc1)c1ccc(O)cc1 measured_number=0.26

###

Conditions: in ethanol, 288.15 K
assay.endpoint: solubility (mole fraction)

smi=CC(C)(c1ccc(O)cc1)c1ccc(O)cc1 measured_number=0.226

###

Details: in ethanol, 298.15 K
assay.endpoint: solubility (mole fraction)

smi=CC(C)(c1ccc(O)cc1)c1ccc(O)cc1 result=0.238

###

Conditions: in sec-butanol, 313.15 K
assay.endpoint: solubility (mole fraction)

smi=CC(C)(c1ccc(O)cc1)c1ccc(O)cc1 result=0.105

Reference source: BigSolDB 2.1
